System: H5N1 virus
test-description: microbe, parasite or virus in culture
Type: cell-based, H5N1 influenza virus
details: Influenza A virus, H5N1, A549, 50 ng/mL; read-out: % Inhibition against H5N1 virus
recorded-endpoint: inhibition at 0.05 µg/mL (%)
Give bare numbers, in %.

# count of solved cases: 3
[
  {
    "compound": "COc1cc2c(OC3O[C@H](C)[C@@H](O)[C@H](OC(=O)C(Cl)(Cl)Cl)[C@H]3O)c3c(c(-c4ccc5c(c4)OCO5)c2cc1OC)C(=O)OC3 (stereo partly drawn) [Compound 31k]",
    "inhibition at 0.05 µg/mL [%]": 86
  },
  {
    "compound": "COc1cc2c(OC3O[C@H](CO)[C@@H]4OC(C)(C)O[C@@H]4[C@H]3O)c3c(c(-c4ccc5c(c4)OCO5)c2cc1OC)C(=O)OC3 (stereo partly drawn) [Compound 32b]",
    "inhibition at 0.05 µg/mL [%]": 88.1
  },
  {
    "compound": "COc1cc2c(OC3O[C@H](C)[C@@H](O)[C@H](OC(=O)c4ccc(N(C)C)cc4)[C@H]3O)c3c(c(-c4ccc5c(c4)OCO5)c2cc1OC)C(=O)OC3 (stereo partly drawn) [Compound 31e]",
    "inhibition at 0.05 µg/mL [%]": 97.9
  }
]

# map each compound to its inhibition at 0.05 µg/mL
1. COc1cc2c(OC3O[C@H](C)[C@@H](O)[C@H](OC(=O)CC#N)[C@H]3O)c3c(c(-c4ccc5c(c4)OCO5)c2cc1OC)C(=O)OC3 (stereo partly drawn) [Compound 31j, 3″-O-cyanoacetyl-7-O-β-D-patentiflorin A]
2. C=CCOC(=O)O[C@@H]1COC(Oc2c3c(c(-c4ccc5c(c4)OCO5)c4cc(OC)c(OC)cc24)C(=O)OC3)[C@H](O)[C@H]1OC(C)=O (stereo partly drawn)
3. C=CCOC(=O)O[C@@H]1COC(Oc2c3c(c(-c4ccc5c(c4)OCO5)c4cc(OC)c(OC)cc24)C(=O)OC3)[C@H](OC(=O)OCC=C)[C@H]1O (stereo partly drawn) [Compound 29a]

Reply:
1: 87.6; 2: 86; 3: 59.4

---

test-description: in vitro
details: human, CC50 against the host cell line A549
Binary label based on CC50 with cut-off 200 nM: below gives fulfilled, not below gives not fulfilled.

Worked set:
[
  {
    "compound": "COc1cc2c(OC3O[C@H](C)[C@@H](O)[C@H](O)[C@H]3O)c3c(c(-c4ccc5c(c4)OCO5)c2cc1OC)C(=O)OC3 (some centres unmarked) [Compound 26b, Patentiflorin A]",
    "class-assignment": "not fulfilled"
  },
  {
    "compound": "C=CCOC(=O)O[C@@H]1COC(Oc2c3c(c(-c4ccc5c(c4)OCO5)c4cc(OC)c(OC)cc24)C(=O)OC3)[C@H](OC(=O)OCC=C)[C@H]1OC(=O)N(C)C (some centres unmarked) [Compound 30a]",
    "class-assignment": "fulfilled"
  }
]

Ask: Please let me know if COc1cc2c(OC3O[C@H](C)[C@@H](O)[C@H](OC(=O)c4ccc(N(C)C)cc4)[C@H]3O)c3c(c(-c4ccc5c(c4)OCO5)c2cc1OC)C(=O)OC3 (some centres unmarked) [Compound 31e] shows CC50 below 200 nM.
Reply: fulfilled

Ask: Is CC50 of CC(=O)O[C@H]1C(=O)[C@@]2(C)[C@H]([C@H](OC(=O)c3ccccc3)[C@]3(O)C[C@H](OC(=O)[C@H](O)[C@@H](NC(=O)c4ccccc4)c4ccccc4)C(C)=C1C3(C)C)[C@]1(OC(C)=O)CO[C@@H]1C[C@@H]2O [taxol, reference compound] strictly below 200 nM?
Reply: fulfilled

Ask: Is CC50 strictly under 200 nM for the entry C=CCOC(=O)O[C@@H]1COC(Oc2c3c(c(-c4ccc5c(c4)OCO5)c4cc(OC)c(OC)cc24)C(=O)OC3)[C@H](O)[C@H]1OC(C)=O (some centres unmarked) ?
Reply: fulfilled

---

test-description: in vitro
details: human, CC50 (nM)
Task for the reader: assign each of the following molecules its reported CC50.
Give bare numbers, in nM.

Field: example entries. Status: answers known.
[
  {
    "molecule": "C=CCOC(=O)O[C@H]1[C@H](O)[C@@H](OC(=O)OCC=C)C(Oc2c3c(c(-c4ccc5c(c4)OCO5)c4cc(OC)c(OC)cc24)C(=O)OC3)O[C@@H]1C (some centres unmarked) [Compound 29b]",
    "CC50 (nM)": 187
  },
  {
    "molecule": "COc1cc2c(OC3O[C@H](C)[C@@H](O)[C@H](OC(=O)C4CC4)[C@H]3O)c3c(c(-c4ccc5c(c4)OCO5)c2cc1OC)C(=O)OC3 (some centres unmarked) [Compound 31g]",
    "CC50 (nM)": 26.7
  },
  {
    "molecule": "COc1cc2c(OC3O[C@H](CO)[C@H](O)[C@H](O)[C@H]3O)c3c(c(-c4ccc5c(c4)OCO5)c2cc1OC)C(=O)OC3 (stereo partly drawn) [Compound 26g, 7-O-β-D-galactopyranosyldiphyllin]",
    "CC50 (nM)": 7770
  },
  {
    "molecule": "COc1cc2c(OC3OC[C@@H](O)[C@H](OC(=O)N(C)C)[C@H]3O)c3c(c(-c4ccc5c(c4)OCO5)c2cc1OC)C(=O)OC3 (some centres unmarked) [Compound 31a]",
    "CC50 (nM)": 55.8
  }
]

Okay, next one:
Ask: I'd like to know its CC50. The molecule in question is COc1cc2c(OC3O[C@H](C)[C@@H](O)[C@H](OC(=O)N(C)C)[C@H]3O)c3c(c(-c4ccc5c(c4)OCO5)c2cc1OC)C(=O)OC3 (some centres unmarked) [Compound 31f]
Reply: 3.74

---

Tested on: H5N1 virus
test-description: microbe, parasite or virus in culture
Assay type: cell-based, H5N1 influenza virus
details: Influenza A virus, H5N1, A549, 12.5 ng/mL; read-out: % Inhibition against H5N1 virus
Parameter threshold = 90%. Response is class 1 when inhibition at 0.0125 µg/mL meets or exceeds it, else class 0.

[
  {
    "molecule": "COc1cc2c(OC3O[C@H](C)[C@@H](O)[C@H](OC(=O)CC#N)[C@H]3O)c3c(c(-c4ccc5c(c4)OCO5)c2cc1OC)C(=O)OC3 (stereo partly drawn) [Compound 31j, 3″-O-cyanoacetyl-7-O-β-D-patentiflorin A]",
    "target-or-test-system": "H5N1 virus",
    "class-assignment": "class 1"
  },
  {
    "molecule": "COc1cc2c(OC3OC[C@@H](O)[C@H](OCc4ccccc4)[C@H]3O)c3c(c(-c4ccc5c(c4)OCO5)c2cc1OC)C(=O)OC3 (stereo partly drawn) [Compound 31l, 3″-O-benzyl-7-O-β-D-xylosyldiphyllin]",
    "target-or-test-system": "H5N1 virus",
    "class-assignment": "class 0"
  },
  {
    "molecule": "C=CCOC(=O)O[C@@H]1COC(Oc2c3c(c(-c4ccc5c(c4)OCO5)c4cc(OC)c(OC)cc24)C(=O)OC3)[C@H](OC(=O)OCC=C)[C@H]1OC(=O)N(C)C (stereo partly shown) [Compound 30a]",
    "target-or-test-system": "H5N1 virus",
    "class-assignment": "class 0"
  },
  {
    "molecule": "COc1cc2c(OC3O[C@H](C)[C@@H](O)[C@H](OC(=O)c4ccc(N(C)C)cc4)[C@H]3O)c3c(c(-c4ccc5c(c4)OCO5)c2cc1OC)C(=O)OC3 (stereo partly shown) [Compound 31e]",
    "target-or-test-system": "H5N1 virus",
    "class-assignment": "class 1"
  }
]

Ask: Decide: inhibition at 0.0125 µg/mL of COc1cc2c(OC3O[C@H](C)[C@@H](O)[C@H](OC(=O)C4CC4)[C@H]3O)c3c(c(-c4ccc5c(c4)OCO5)c2cc1OC)C(=O)OC3 (stereo partly shown) [Compound 31g] >= 90%?
Reply: class 1

---

For each record, write down the corresponding IC50.
Tested on: Bal
test-description: HIV-1 clinical strain PBMC assay (p24 ELISA), Bal
Type: cell-based
details: Human immunodeficiency virus 1, BAL, read-out: IC50 against Bal
Give bare numbers, in nM.

[
  {
    "molecule": "CCOC(=O)COc1c2c(c(-c3ccc4c(c3)OCO4)c3cc(OC)c(OC)cc13)C(=O)OC2 [Compound 12b]",
    "recorded-endpoint": "IC50",
    "numeric-value": 458
  },
  {
    "molecule": "C#Cc1c2c(c(-c3ccc4c(c3)OCO4)c3cc(OC)c(OC)cc13)C(=O)OC2 [Compound 21]",
    "recorded-endpoint": "IC50",
    "numeric-value": 26.5
  },
  {
    "molecule": "COc1cc2c(B3OC(C)(C)C(C)(C)O3)c3c(c(-c4ccc5c(c4)OCO5)c2cc1OC)C(=O)OC3 [Compound 19a]",
    "recorded-endpoint": "IC50",
    "numeric-value": 188
  }
]

Okay, now this molecule:
Ask: I am curious: what IC50 value has been reported for COc1cc2c(OCC#N)c3c(c(-c4ccc5c(c4)OCO5)c2cc1OC)C(=O)OC3 [Compound 17a] ?
Reply: 168
